measurementNotes: Unbound fraction in rat plasma by equilibrium based LC-MS/MS analysis
quantityMeasured: fraction unbound

>>> valueobserved("C[C@@H]1CN(c2sc(C(F)(F)F)nc2-c2nc3ccccc3[nH]2)CCN1C(=O)Cn1cnc2cccnc21")
0.017
>>> valueobserved("COc1cc2nc(-c3nc(C(F)(F)F)sc3N3CCN(C(=O)Cn4cnc5cccnc54)[C@H](C)C3)[nH]c2cc1OC")
0.042
>>> valueobserved("Cc1nc(C)n(CC(=O)N2CCN(c3sc(C(F)(F)F)nc3-c3nc4ccccc4[nH]3)C[C@H]2C)n1")
0.074

Task item: Give its fraction unbound value. Item: Cc1nc(C)n(CC(=O)N2CCN(c3sc(C(F)(F)F)nc3-c3nc4ccc(-c5noc(C)n5)cc4[nH]3)C[C@H]2C)n1
Reply: 0.029

* * *

measurementNotes: Half life in Wistar rat at 0.5 mg/kg, iv
assaySetup: in vivo
quantityMeasured: half-life (h)
Write the value in h as a bare number.

>>> valueobserved("Cc1nc(C)n(CC(=O)N2CCN(c3sc(C(F)(F)F)nc3-c3nc4ccccc4[nH]3)C[C@H]2C)n1")
3

Task item: Give its half-life value. Item: Cc1nc(C)n(CC(=O)N2CCN(c3sc(C(F)(F)F)nc3-c3nc4ccc(-c5noc(C)n5)cc4[nH]3)C[C@H]2C)n1
Reply: 1.2

* * *

measurementNotes: Volume of distribution in rat
Assay type: ADME
assaySetup: in vivo
quantityMeasured: Vd

Task item: Give its Vd value. Item: Cc1nc(C)n(CC(=O)N2CCN(c3sc(C(F)(F)F)nc3-c3nc4ccc(-c5noc(C)n5)cc4[nH]3)C[C@H]2C)n1
Reply: 1.1 L/kg

* * *

systemName: UniProt Q12809
measurementNotes: Inhibition of hERG expressed in CHO cells at 3 uM at -80 mV holding potential assessed as current block incubated for 3 mins by Qpatch clamp method relative to control
This listing pairs compounds with measured inhibition at 0.05 h, 3 µM.
Write the value in % as a bare number.

See these solved cases before continuing.
>>> valueobserved("Cc1ccc(CC(=O)N2CCN(c3sc(C(F)(F)F)nc3-c3nc4ccccc4[nH]3)C[C@H]2C)cn1")
73
>>> valueobserved("Cc1nc(C)n(CC(=O)N2CCN(c3sc(C(F)(F)F)nc3-c3nc4ccc(C(C)(C)O)c(F)c4[nH]3)C[C@H]2C)n1")
18
>>> valueobserved("Cc1nc(C)n(CC(=O)N2CCN(c3sc(C(F)(F)F)nc3-c3nc4c(F)cccc4[nH]3)C[C@H]2C)n1")
45

# ---- query compound ----
Task item: Give its inhibition at 0.05 h, 3 µM value. Item: Cc1nnc(CC(=O)N2CCN(c3sc(C(F)(F)F)nc3-c3nc4ccccc4[nH]3)C[C@H]2C)o1
Reply: 36

* * *

systemName: C-X-C chemokine receptor type 3 (Homo sapiens)
Sequence (P49682 whole entry): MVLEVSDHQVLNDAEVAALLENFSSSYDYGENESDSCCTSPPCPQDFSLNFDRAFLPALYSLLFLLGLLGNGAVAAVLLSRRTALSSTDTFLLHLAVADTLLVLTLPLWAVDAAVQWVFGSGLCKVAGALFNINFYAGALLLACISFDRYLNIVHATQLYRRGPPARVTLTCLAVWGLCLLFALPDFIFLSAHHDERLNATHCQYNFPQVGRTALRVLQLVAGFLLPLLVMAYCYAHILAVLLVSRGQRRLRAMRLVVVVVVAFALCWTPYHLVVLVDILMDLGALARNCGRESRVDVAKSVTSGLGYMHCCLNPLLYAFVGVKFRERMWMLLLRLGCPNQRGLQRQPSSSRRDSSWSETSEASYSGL
measurementNotes: Antagonist activity at human recombinant CXCR3 in human venous blood assessed as receptor internalization measured for 30 mins in presence of CXCL10 by flow cytometric analysis
This listing pairs molecules with measured IC50.
Write the value in nM as a bare number.

>>> valueobserved("Cc1nc(C)n(CC(=O)N2CCN(c3sc(C(F)(F)F)nc3-c3nc4ccccc4[nH]3)C[C@H]2C)n1")
237
>>> valueobserved("C[C@@H]1CN(c2sc(C(F)(F)F)nc2-c2nc3ccccc3[nH]2)CCN1C(=O)Cn1cc(Cl)cn1")
251

Task item: Give its IC50 value. Item: C[C@@H]1CN(c2sc(C(F)(F)F)nc2-c2nc3ccccc3n2C)CCN1C(=O)Cn1cccn1
Reply: 3560

Task item: Give its IC50 value. Item: Cc1nc(C)n(CC(=O)N2CCN(c3sc(C(F)(F)F)nc3-c3nc4ccc(-c5noc(C)n5)cc4[nH]3)C[C@H]2C)n1
Reply: 239

* * *

systemName: C-X-C chemokine receptor type 3 (Homo sapiens, UniProt P49682)
measurementNotes: Antagonist activity at human recombinant CXCR3 in human venous blood assessed as receptor internalization measured for 30 mins in presence of CXCL10 by flow cytometric analysis
This listing pairs compounds with measured pIC50.
Lab note — pIC50 values are minus log10 of concentrations in M.

See these solved cases before continuing.
>>> valueobserved("C[C@@H]1CN(c2sc(C(F)(F)F)nc2-c2nc3cc(OCCO)ccc3[nH]2)CCN1C(=O)Cn1cnc2cccnc21")
7.00
>>> valueobserved("Cc1nc(C)n(CC(=O)N2CCN(c3sc(C(F)(F)F)nc3-c3nc4ccc(N5CCOCC5)cc4[nH]3)C[C@H]2C)n1")
6.43
>>> valueobserved("C[C@@H]1CN(c2sc(C(F)(F)F)nc2-c2nc3ccccc3[nH]2)CCN1C(=O)Cn1cc(C2CCN(C)CC2)cn1")
5.77

# ---- query compound ----
Task item: Give its pIC50 value. Item: Cc1nc(C)n(CC(=O)N2CCN(c3sc(C(F)(F)F)nc3-c3nc4c(F)cccc4[nH]3)C[C@H]2C)n1
Reply: 6.49

* * *

systemName: hERG (KCNH2) (Homo sapiens, UniProt Q12809)
Sequence (Q12809 whole entry): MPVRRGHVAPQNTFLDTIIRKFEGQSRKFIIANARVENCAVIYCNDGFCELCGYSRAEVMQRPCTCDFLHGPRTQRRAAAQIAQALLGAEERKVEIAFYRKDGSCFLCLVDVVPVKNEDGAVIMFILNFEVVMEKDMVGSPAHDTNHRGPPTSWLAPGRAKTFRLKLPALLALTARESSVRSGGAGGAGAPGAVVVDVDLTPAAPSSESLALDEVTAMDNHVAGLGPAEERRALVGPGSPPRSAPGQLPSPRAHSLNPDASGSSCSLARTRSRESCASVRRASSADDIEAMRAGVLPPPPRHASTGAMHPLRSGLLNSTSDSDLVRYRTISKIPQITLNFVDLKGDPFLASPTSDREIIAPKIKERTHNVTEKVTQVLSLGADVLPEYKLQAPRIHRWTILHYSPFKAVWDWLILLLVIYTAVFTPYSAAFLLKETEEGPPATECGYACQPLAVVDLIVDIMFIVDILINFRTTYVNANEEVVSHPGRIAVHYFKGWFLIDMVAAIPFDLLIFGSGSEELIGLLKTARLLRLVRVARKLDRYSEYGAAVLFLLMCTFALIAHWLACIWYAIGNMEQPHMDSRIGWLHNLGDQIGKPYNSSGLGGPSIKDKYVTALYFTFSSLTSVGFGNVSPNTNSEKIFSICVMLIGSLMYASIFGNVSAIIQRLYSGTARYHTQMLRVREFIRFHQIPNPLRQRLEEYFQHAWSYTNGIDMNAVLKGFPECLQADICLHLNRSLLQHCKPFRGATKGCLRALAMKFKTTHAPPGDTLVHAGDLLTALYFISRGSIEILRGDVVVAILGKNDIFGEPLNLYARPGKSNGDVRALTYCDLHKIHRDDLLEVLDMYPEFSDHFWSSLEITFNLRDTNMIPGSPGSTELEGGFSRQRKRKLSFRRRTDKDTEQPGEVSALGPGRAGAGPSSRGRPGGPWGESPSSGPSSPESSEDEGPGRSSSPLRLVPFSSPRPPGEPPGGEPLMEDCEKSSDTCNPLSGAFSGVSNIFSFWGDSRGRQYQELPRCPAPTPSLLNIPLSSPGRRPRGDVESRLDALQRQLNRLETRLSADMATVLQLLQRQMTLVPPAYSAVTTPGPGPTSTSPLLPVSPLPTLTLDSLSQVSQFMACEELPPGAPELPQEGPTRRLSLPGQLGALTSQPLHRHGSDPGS
measurementNotes: Inhibition of hERG expressed in CHO cells at 3 uM at -80 mV holding potential assessed as current block incubated for 3 mins by Qpatch clamp method relative to control
quantityMeasured: inhibition at 0.05 h, 3 µM (%)
Write the value in % as a bare number.

See these solved cases before continuing.
>>> valueobserved("C[C@@H]1CN(c2sc(C(F)(F)F)nc2-c2nc3ccccc3[nH]2)CCN1C(=O)CN1C(=O)OC[C@@H]1c1ccccc1")
83
>>> valueobserved("Cc1nc(C)n(CC(=O)N2CCN(c3sc(C(F)(F)F)nc3-c3nc4ccc(N5CCOCC5)c(F)c4[nH]3)C[C@H]2C)n1")
25
>>> valueobserved("C[C@@H]1CN(c2sc(C(F)(F)F)nc2-c2nc3ccc(CO)cc3[nH]2)CCN1C(=O)Cn1cnc2cccnc21")
12
>>> valueobserved("C[C@@H]1CN(c2sc(C(F)(F)F)nc2-c2nc3ccc(N4CCN(C)CC4)cc3[nH]2)CCN1C(=O)Cn1cccn1")
0
>>> valueobserved("C[C@@H]1CN(c2sc(C(F)(F)F)nc2-c2nc3ccccc3[nH]2)CCN1C(=O)CN1CCC(F)(F)CC1")
84

Task item: Query for hERG (KCNH2) (Homo sapiens, UniProt Q12809): what inhibition at 0.05 h, 3 µM does the record show for Cc1nc(C)n(CC(=O)N2CCN(c3sc(C(F)(F)F)nc3-c3nc4c(C(F)(F)F)cccc4[nH]3)C[C@H]2C)n1 ?
Reply: 52

Task item: Query for hERG (KCNH2) (Homo sapiens, UniProt Q12809): what inhibition at 0.05 h, 3 µM does the record show for Cc1nc(C)n(CC(=O)N2CCN(c3sc(C(F)(F)F)nc3-c3nc4ccc(O)c(F)c4[nH]3)C[C@H]2C)n1 ?
Reply: 15

Task item: Query for hERG (KCNH2) (Homo sapiens, UniProt Q12809): what inhibition at 0.05 h, 3 µM does the record show for C[C@@H]1CN(c2sc(C(F)(F)F)nc2-c2nc3ccccc3[nH]2)CCN1C(=O)Cc1cccc2cccnc12 ?
Reply: 78

Task item: Query for hERG (KCNH2) (Homo sapiens, UniProt Q12809): what inhibition at 0.05 h, 3 µM does the record show for C[C@@H]1CN(c2sc(C(F)(F)F)nc2-c2nc3ccccc3[nH]2)CCN1C(=O)Cn1cc(Cl)cn1 ?
Reply: 70

Task item: Query for hERG (KCNH2) (Homo sapiens, UniProt Q12809): what inhibition at 0.05 h, 3 µM does the record show for Cc1nn(CC(=O)N2CCN(c3sc(C(F)(F)F)nc3-c3nc4ccccc4[nH]3)C[C@H]2C)cc1CN(C)C ?
Reply: 38

* * *

systemName: C-X-C chemokine receptor type 3 (Homo sapiens)
measurementNotes: Antagonist activity at human recombinant CXCR3 expressed in CHO-K1 cells measured after 10 mins in presence of CXCL10 by FLIPR analysis
API: label(entry) gives Met if the entry's IC50 is strictly smaller than 6 nM; on equality or larger values it gives Not met.

>>> classassignment("Cc1nc(C)n(CC(=O)N2CCN(c3sc(C(F)(F)F)nc3-c3nc4ccc(C5CCNCC5)cc4[nH]3)C[C@H]2C)n1")
"Met"
>>> classassignment("Cc1nc(C)n(CC(=O)N2CCN(c3sc(C(F)(F)F)nc3-c3nc4ccc(-n5cncn5)cc4[nH]3)C[C@H]2C)n1")
"Met"
>>> classassignment("C[C@@H]1CN(c2sc(C(F)(F)F)nc2-c2nc3cc(OCCO)ccc3[nH]2)CCN1C(=O)Cn1cnc2cccnc21")
"Met"
>>> classassignment("Cc1nnc(CC(=O)N2CCN(c3sc(C(F)(F)F)nc3-c3nc4ccccc4[nH]3)C[C@H]2C)o1")
"Not met"
>>> classassignment("Cc1nn(CC(=O)N2CCN(c3sc(C(F)(F)F)nc3-c3nc4ccccc4[nH]3)C[C@H]2C)cc1CN(C)C")
"Met"

Task item: Is it true that IC50 reported for COCCn1c(-c2nc(C(F)(F)F)sc2N2CCN(C(=O)Cn3cccn3)[C@H](C)C2)nc2ccccc21 is less than 6 nM?
Reply: Not met

Task item: Is it true that IC50 reported for C[C@@H]1CN(c2sc(C(F)(F)F)nc2-c2nc3ccc(CO)cc3[nH]2)CCN1C(=O)Cn1cnc2cccnc21 is less than 6 nM?
Reply: Met

Task item: Is it true that IC50 reported for C[C@@H]1CN(c2sc(C(F)(F)F)nc2-c2nc3ccccc3[nH]2)CCN1C(=O)Cc1cccc2cccnc12 is less than 6 nM?
Reply: Not met
